Recorded viscosity by entry
Conditions: 318.15 K; 101.33 kPa; Liquid; Cone and plate viscometry
property.measured: viscosity (mPa·s)

[[record]]
compound = "CCCCCCCCCCCCCC[P+](CCCCCC)(CCCCCC)CCCCCC.O=[N+]([O-])c1cn[n-]c1 [trihexyl(tetradecyl)phosphonium 4-nitropyrazolide]"
property_measured = "viscosity"
obs_value = 214

[[record]]
compound = "CC(=O)[O-].CCCCCCCCCCCCCC[P+](CCCCCC)(CCCCCC)CCCCCC [trihexyl(tetradecyl)phosphonium acetate]"
property_measured = "viscosity"
obs_value = 135

[[record]]
compound = "CCCCCCC[P+](CC)(CC)CC.O=[N+]([O-])c1cn[n-]c1 [triethylheptylphosphonium 4-nitropyrazolide]"
property_measured = "viscosity"
obs_value = 77


---

Settings: 283.15 K; 101.33 kPa; Liquid; Vibrating tube method
Below, each of the compounds is paired with its reported mass density value.
property.measured: mass density (kg/m3)

[[record]]
compound = "CCCCCCCCSC(N(C)C)=[N+](C)C.O=S(=O)([N-]S(=O)(=O)C(F)(F)F)C(F)(F)F"
property_measured = "mass density"
obs_value = 1309.6

[[record]]
compound = "CC[P+](CC)(CC)COCCOC.O=[N+]([O-])c1cn[n-]c1"
property_measured = "mass density"
obs_value = 1149.2

[[record]]
compound = "CC(=O)[O-].CCCCCCCCCCCCCC[P+](CCCCCC)(CCCCCC)CCCCCC [trihexyl(tetradecyl)phosphonium acetate]"
property_measured = "mass density"
obs_value = 895

[[record]]
compound = "CCCCCC[n+]1ccn(C)c1.O=S(=O)([N-]S(=O)(=O)C(F)(F)F)C(F)(F)F"
property_measured = "mass density"
obs_value = 1386.6


---

Collected mass density values appear next to each entry.
Settings: 295.15 K; 101.33 kPa; Liquid; Vibrating tube method
property.measured: mass density (kg/m3)

[[record]]
molecule = "CC(=O)[O-].CCCCCCCCCCCCCC[P+](CCCCCC)(CCCCCC)CCCCCC [trihexyl(tetradecyl)phosphonium acetate]"
obs_value = 887.6

[[record]]
molecule = "CCCCCCCCCC[P+](CC)(CC)CC.O=[N+]([O-])c1cn[n-]c1 [decyltriethylphosphonium 4-nitropyrazolide]"
obs_value = 1012.7

[[record]]
molecule = "CCCC[n+]1cccn1C.O=S(=O)([N-]S(=O)(=O)C(F)(F)F)C(F)(F)F [1-butyl-2-methylpyrazolium bis(trifluoromethylsulfonyl)imide]"
obs_value = 1454.06


---

Details: Crystal; DTA
property.measured: Normal melting temperature (°C)

[[record]]
molecule = "CCCCCCCCC[P+](CC)(CC)CC.O=[N+]([O-])c1cn[n-]c1 [triethylnonylphosphonium 4-nitropyrazolide]"
unit_of_measure = "°C"
obs_value = 16

[[record]]
molecule = "Cc1n(C2CCCC2)cc[n+]1C.O=[N+]([O-])c1cn[n-]c1 [1-cyclopentyl-2,3-dimethylimidazolium 4-nitropyrazolide]"
unit_of_measure = "°C"
obs_value = 92

[[record]]
molecule = "CCCCCCC[P+](CC)(CC)CC.O=[N+]([O-])c1cn[n-]c1 [triethylheptylphosphonium 4-nitropyrazolide]"
unit_of_measure = "°C"
obs_value = 16

[[record]]
molecule = "CC[P+](CC)(CC)COCCOC.O=[N+]([O-])c1cn[n-]c1"
unit_of_measure = "°C"
obs_value = -15

[[record]]
molecule = "CC[P+](CC)(CC)C1CCCC1.O=[N+]([O-])c1cn[n-]c1 [cyclopentyltriethylphosphonium 4-nitropyrazolide]"
unit_of_measure = "°C"
obs_value = 51

[[record]]
molecule = "CCCCCCCCCC[P+](CC)(CC)CC.O=[N+]([O-])c1cn[n-]c1 [decyltriethylphosphonium 4-nitropyrazolide]"
unit_of_measure = "°C"
obs_value = 11

[[record]]
molecule = "CCCCCCCC[P+](CC)(CC)CC.O=[N+]([O-])c1cn[n-]c1 [triethyloctylphosphonium 4-nitropyrazolide]"
unit_of_measure = "°C"
obs_value = 5

[[record]]
molecule = "CCC=C[P+](CC)(CC)CC.O=[N+]([O-])c1cn[n-]c1 [(buten-1-yl)triethylphosphonium 4-nitropyrazolide]"
unit_of_measure = "°C"
obs_value = 39

[[record]]
molecule = "CCCC[P+](CC)(CC)CC.O=[N+]([O-])c1cn[n-]c1 [butyltriethylphosphonium 4-nitropyrazolide]"
unit_of_measure = "°C"
obs_value = 44

[[record]]
molecule = "CCC=C[P+](CC)(CC)CC.O=S(=O)([N-]S(=O)(=O)C(F)(F)F)C(F)(F)F"
unit_of_measure = "°C"
obs_value = 49

[[record]]
molecule = "CCCC[S+]1CCCCC1.O=S(=O)([N-]S(=O)(=O)C(F)(F)F)C(F)(F)F [1-butylthianium bis(trifluoromethylsulfonyl)imide]"
unit_of_measure = "°C"
obs_value = -10

[[record]]
molecule = "CCCCCCCC[P+](CC)(CC)CC.O=[N+]([O-])c1c[n-]cn1 [triethyloctylphosphonium 4-nitroimidazolide]"
unit_of_measure = "°C"
obs_value = -28

[[record]]
molecule = "CCCCCCn1cc[n+](C)c1.O=[N+]([O-])c1cn[n-]c1 [1-hexyl-3-methylimidazolium 4-nitropyrazolide]"
unit_of_measure = "°C"
obs_value = 33

[[record]]
molecule = "CCCC[P+](CC)(CC)CC.Cc1ncc([N+](=O)[O-])[n-]1 [butyltriethylphosphonium 2-methyl-5-nitroimidazolide]"
unit_of_measure = "°C"
obs_value = 17

